I'd be grateful if you could share measured EC50 for these entries.
- target desc: human Farnesoid X Receptor (FXR) ligand binding domain (Homo sapiens, UniProt Q96RI1)
- Sequence (Q96RI1 193-472 isoform Q96RI1-2): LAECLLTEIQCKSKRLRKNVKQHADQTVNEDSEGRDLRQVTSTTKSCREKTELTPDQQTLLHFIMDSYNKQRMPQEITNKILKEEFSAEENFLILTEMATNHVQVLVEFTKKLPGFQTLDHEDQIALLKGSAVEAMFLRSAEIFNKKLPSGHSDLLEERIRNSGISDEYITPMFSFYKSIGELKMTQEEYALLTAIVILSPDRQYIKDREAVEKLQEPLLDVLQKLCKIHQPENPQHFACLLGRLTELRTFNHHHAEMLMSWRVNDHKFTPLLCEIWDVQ
- measurement description: Human GST-FXR LBD co-activator interaction assay (FXR HTRF assay)
- cond: GST-FXR LBD with biotin-labeled SRC-1 peptide, FRET/HTRF, 2.5 hours at room temperature; response relative to GW4064; read-out: FXR coactivator interaction assay (HTRF) (EC50)
One number for each entry, in µM.

>>> value_reported("CC1(c2onc(-c3ccccc3OC(F)(F)F)c2COC2CCN(c3nc4ccc(C(=O)O)cc4s3)CC2)CC1")
0.098

Batch request: EC50 per item, same order as input.
1. CCOC(=O)c1ccc2nc(N3CCC(OCc4c(-c5ccccc5C(F)(F)F)noc4C4CC4)CC3)sc2c1
2. O=C(NCCS(=O)(=O)O)c1ccc2nc(N3CCC(OCc4c(-c5ccccc5OC(F)(F)F)noc4C4CC4)CC3)sc2c1
3. N#Cc1ccc2nc(N3CCC(OCc4c(-c5c(Cl)cccc5Cl)noc4C4CC4)CC3)sc2c1
4. Cc1cc(C(=O)O)cc2sc(N3CCC(OCc4c(-c5ccccc5OC(F)(F)F)noc4C4CC4)CC3)nc12

[0.761, 0.087, 0.132, 0.024]

Batch request: EC50 per item, same order as input.
1. O=C(O)c1ccc2nc(N3CCC(OCc4c(-c5c(Cl)cccc5C(F)(F)F)noc4C4CC4)CC3)sc2c1
2. COC(=O)CNC(=O)c1ccc2nc(N3CCC(OCc4c(-c5ccccc5OC(F)(F)F)noc4C4CC4)CC3)sc2c1

0.198
0.456

* * *

I'd be grateful if you could share measured EC50 for these entries.
- target desc: human Farnesoid X Receptor (FXR) ligand binding domain (Homo sapiens, UniProt Q96RI1)
- Sequence (Q96RI1 193-472 isoform Q96RI1-2): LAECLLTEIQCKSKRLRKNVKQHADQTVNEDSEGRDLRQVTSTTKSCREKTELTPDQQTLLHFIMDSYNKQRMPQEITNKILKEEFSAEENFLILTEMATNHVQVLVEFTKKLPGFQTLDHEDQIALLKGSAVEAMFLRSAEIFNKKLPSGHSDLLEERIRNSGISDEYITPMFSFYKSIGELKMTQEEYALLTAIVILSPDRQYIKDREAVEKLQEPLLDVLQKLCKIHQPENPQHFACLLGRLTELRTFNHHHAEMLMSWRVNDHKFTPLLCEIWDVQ
- measurement description: Human GST-FXR LBD co-activator interaction assay (FXR HTRF assay)
- cond: GST-FXR LBD with biotin-labeled SRC-1 peptide, FRET/HTRF, 2.5 hours at room temperature; response relative to GW4064; read-out: FXR coactivator interaction assay (HTRF) (EC50)
Answers are plain numbers, in nM.

Some solved cases for reference:
>>> value_reported("O=C(O)c1ccc2nc(N3CCC(OCc4c(-c5c(F)cccc5Cl)noc4C4CC4)CC3)sc2c1 [Example 2-12B]")
57
>>> value_reported("O=C(O)c1ccc2nc(N3CCC(OCc4c(-c5c(Cl)cccc5Cl)noc4C4CC4)CC3)sc2c1 [Example 2-13]")
10
>>> value_reported("N#Cc1ccc2nc(N3CCC(OCc4c(-c5c(F)cccc5Cl)noc4C4CC4)CC3)sc2c1 [Example 7-5]")
836
>>> value_reported("O=C(O)c1ccc2sc(N3CCC(OCc4c(-c5ccccc5OC(F)(F)F)noc4C4CC4)CC3)nc2c1 [Example 2-1]")
62
>>> value_reported("O=C(O)c1ccc2nc(N3CCC(OCc4c(C5CCCCC5C(F)(F)F)noc4C4CC4)CC3)sc2c1 (single isomer, unassigned) [5 (Diastereomer B)]")
64
>>> value_reported("O=C(O)CNC(=O)c1ccc2nc(N3CCC(OCc4c(-c5ccccc5OC(F)(F)F)noc4C4CC4)CC3)sc2c1 [Example 8-1B]")
20

// next item, EC50 requested
Notebook entry, human Farnesoid X Receptor (FXR) ligand binding domain (Homo sapiens, UniProt Q96RI1) assay: EC50 of FC(F)(F)Oc1ccccc1-c1noc(C2CC2)c1COC1CCN(c2nc3ccc(-c4nn[nH]n4)cc3s2)CC1 [Example 7-3] = ? 433

// data source = patent US20130261108A1
